B1: KRT13 (parent)
chain: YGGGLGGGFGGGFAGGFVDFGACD

Variants of: B1
Experiment: protein stability index of a GFP-peptide fusion (GPS, HEK-293T) (PSI 1-6); higher = more stable;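 also: lentivirally expressed fusions sorted by FACS into six bins by GFP to DsRed ratio, PSI derived from sequencing read proportions per bin multiplied by bin number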
Details: c terminus: a fixed tail appended
Attribute: protein stability index

Alteration: G4E
protein stability index: 1.95

Alteration: F17N
protein stability index: 2.55

Alteration: G10C
protein stability index: 4

Alteration: V18C
protein stability index: 1.38

Alteration: Y1N
protein stability index: 3.65

Alteration: F17S
protein stability index: 1.89

Alteration: F20T
protein stability index: 2.22

Alteration: G4N
protein stability index: 1.8

Alteration: G21P
protein stability index: 1.67

Alteration: G6H
protein stability index: 1.79

Alteration: F13C
protein stability index: 2.11

Alteration: G11R
protein stability index: 1.86

Alteration: A14Y
protein stability index: 2.65

Alteration: G8D
protein stability index: 2.41

Alteration: F9D
protein stability index: 2.46

Alteration: G2Y
protein stability index: 1.63

Alteration: A22K
protein stability index: 1.98

Alteration: G11C
protein stability index: 1.56

Alteration: G8R
protein stability index: 1.67

Alteration: C23P
protein stability index: 1.8

Alteration: G15P
protein stability index: 2.71

Alteration: G3V
protein stability index: 2.48
